Recorded log10(T1/2) by entry
Target: TrkB (Homo sapiens (Human), UniProt Q16620 32-430)
Sequence (Q16620 32-430 limits assumed): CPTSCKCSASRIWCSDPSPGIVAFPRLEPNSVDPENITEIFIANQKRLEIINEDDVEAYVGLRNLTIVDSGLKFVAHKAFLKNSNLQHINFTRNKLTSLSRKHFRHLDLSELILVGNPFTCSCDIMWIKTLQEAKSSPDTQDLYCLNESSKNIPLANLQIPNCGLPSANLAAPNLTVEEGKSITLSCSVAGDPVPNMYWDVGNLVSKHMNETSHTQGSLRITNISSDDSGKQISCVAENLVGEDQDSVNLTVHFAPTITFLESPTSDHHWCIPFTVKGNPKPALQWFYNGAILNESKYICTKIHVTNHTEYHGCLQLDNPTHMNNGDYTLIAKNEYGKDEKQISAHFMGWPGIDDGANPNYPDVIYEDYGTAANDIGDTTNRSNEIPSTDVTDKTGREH
Assay: koff of Fab at 25 C; T1/2=Log2/koff
Hey, these are logged values: log10 of T1/2, min being the unit before logging.

Examples with their reported log10(T1/2) follow.
[[record]]
binder = "4B12-5 (Fab, V domains shown, Fab) VH: QVQLVQSGAEVKKPGASVKVSCKASGYTFTNYDIIWVRQAPGQGLEWMGYINPYNDRREYNEKFKGRVTMTRDTSTSTVYMELSSLRSEDTAVYYCARLLKYRRFRYYAIDYWGQGTTVTVSS VL: DIQMTQSPSSLSASVGDRVTITCRASEPVYSNVAWYQQKPGKAPKLLIYAASNLQSGVPSRFSGSGSGTDYTFTISSLQPEDIATYYCQHFWGSPFTFGQGTKLEIK"
quantity_name = "log10(T1/2)"
numeric_value = 1.21

[[record]]
binder = "13-C11 (Fab, V domains shown, Fab) VH: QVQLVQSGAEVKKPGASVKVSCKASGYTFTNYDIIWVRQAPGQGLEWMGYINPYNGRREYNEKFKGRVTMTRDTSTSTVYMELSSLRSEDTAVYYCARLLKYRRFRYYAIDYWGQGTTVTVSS VL: DIQMTQSPSSLSASVGDRVTITCRASENVYSHLAWYQQKPGKAPKLLIYAASNLQSGVPSRFSGSGSGTDYTFTISSLQPEDIATYYCQHFWGSPFTFGQGTKLEIK"
quantity_name = "log10(T1/2)"
numeric_value = 1.11


Param item = 14-A6 (Fab, V domains shown, Fab) VH: QVQLVQSGAEVKKPGASVKVSCKASGYTFTNYDIIWVRQAPGQGLEWMGYINPYNRRREYNEKFKGRVTMTRDTSTSTVYMELSSLRSEDTAVYYCARLLKYRRFRYYAIDYWGQGTTVTVSS VL: DIQMTQSPSSLSASVGDRVTITCHASENVYSNLAWYQQKPGKAPKLLIYAASNLQSGVPSRFSGSGSGTDFTFTISSLQPEDIATYYCQHFWGSPFTFGQGTKLEIK ; retrieve measured log10(T1/2).
0.45

Item 4B12-27 (Fab, V domains shown, Fab) VH: QVQLVQSGAEVKKPGASVKVSCKASGYTFTNYDIIWVRQAPGQGLEWMGYINPYNGRREYNEKFKGRVTMTRDTSTSTVYMELSSLRSEDTAVYYCARLLKARRFRYYAIDYWGQGTTVTVSS VL: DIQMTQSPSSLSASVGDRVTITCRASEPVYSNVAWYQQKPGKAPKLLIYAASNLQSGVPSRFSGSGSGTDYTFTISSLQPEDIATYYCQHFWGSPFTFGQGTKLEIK has what recorded log10(T1/2)?
-0.30

Dear colleague, I am looking for the recorded log10(T1/2) of the following binder: 10-G3 (Fab, V domains shown, Fab) VH: QVQLVQSGAEVKKPGASVKVSCKASGYTFTNYDIIWVRQAPGQGLEWMGYINPYNERTEYNEKFKGRVTMTRDTSTSTVYMELSSLRSEDTAVYYCARLLKYRRFRYYAIDYWGQGTTVTVSS VL: DIQMTQSPSSLSASVGDRVTITCRASENVYRNLAWYQQKPGKAPKLLIYIASNLQSGVPSRFSGSGSGTDFTFTISSLQPEDIATYYCQHFVYSPFTFGQGTKLEIK
0.68
